Where do the numbers come from? From patent US9567339B2.

# systemTested: BTK, recombinant human catalytic domain (aa 393-659) (Homo sapiens (Human), UniProt Q06187)
# Sequence (Q06187 393-659): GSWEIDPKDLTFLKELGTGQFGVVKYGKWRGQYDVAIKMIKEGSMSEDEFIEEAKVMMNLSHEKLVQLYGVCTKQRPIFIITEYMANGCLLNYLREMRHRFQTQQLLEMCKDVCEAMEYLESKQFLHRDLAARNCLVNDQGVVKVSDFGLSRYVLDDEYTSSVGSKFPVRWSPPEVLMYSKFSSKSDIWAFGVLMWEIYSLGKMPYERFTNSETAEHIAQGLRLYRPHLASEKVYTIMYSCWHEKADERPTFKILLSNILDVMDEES
# testProtocol: In vitro BTK kinase activity measured by time-resolved fluorescence resonance energy transfer (trFRET)
# Assay type: biochemical
# assaySetup: read-out: Btk IC50
pIC50: −log10 of the molar value.
metric: pIC50

Guide cases for pIC50, answers given:
C=CC(=O)Nc1cc(-c2ccc(C(N)=O)c3[nH]ccc23)ccc1C#N	> 7.00
C=CC(=O)Nc1cc(OC)cc(-c2ccc(C(N)=O)c3[nH]ccc23)c1	6.00 to 7.00
Cc1c(NC(=O)CCN(C)C)cccc1-c1ccc(C(N)=O)c2[nH]c(C3=CCN(S(C)(=O)=O)CC3)cc12	> 7.00
C=CC(=O)N1CC[C@@H](c2ccc(C(N)=O)c3[nH]c(C)cc23)C1	6.00 to 7.00
C=CC(=O)N1C[C@H](CO)C[C@H](c2ccc(C(N)=O)c3[nH]ccc23)C1	6.00 to 7.00
Cn1cc(-c2cc3c(-c4cccc(-n5cnc6ccc(F)cc6c5=O)c4CO)ccc(C(N)=O)c3[nH]2)cn1	> 7.00

Please give the measured pIC50 for this compound: Cc1nc(C(=O)NC2CCCN(c3ccc(C(N)=O)c4[nH]c(C5=CCN(S(C)(=O)=O)CC5)cc34)C2)co1 (centres unmarked)
> 7.00

Please give the measured pIC50 for this compound: C=CC(=O)N(Cc1nccs1)c1cccc(-c2ccc(C(N)=O)c3[nH]c(C4=CCN(S(C)(=O)=O)CC4)cc23)c1C
> 7.00

---

# systemTested: BTK, recombinant human catalytic domain (aa 393-659) (Homo sapiens (Human), UniProt Q06187)
# testProtocol: In vitro BTK kinase activity measured by time-resolved fluorescence resonance energy transfer (trFRET)
# Type: biochemical
# assaySetup: trFRET, 0.001 mM ATP, biotin-TYR1 peptide substrate; read-out: Btk IC50
metric: IC50

Guide cases for IC50, answers given:
Cc1c(NC(=O)c2nccs2)cccc1-c1ccc(C(N)=O)c2[nH]c(-c3ccccc3CNC(=O)COc3ccccc3)cc12 [D.1.6]	1000 to 10000 nM
C=CC(=O)Nc1cc(NCc2nccs2)cc(-c2ccc(C(N)=O)c3[nH]c(C4=CCN(S(C)(=O)=O)CC4)cc23)c1 [Example 6]	< 100 nM
C#CC(=O)N1CC(N(C)c2ccc(C(N)=O)c3[nH]c(C)cc23)C1 [D.10.1]	< 100 nM
Cc1ccc(NC(=O)c2nccs2)cc1-c1ccc(C(N)=O)c2[nH]c(-c3cccnc3)cc12 [A.7.7]	1000 to 10000 nM
Cc1c(-c2ccc(C(N)=O)c3[nH]c(-c4cnn(C)c4)cc23)cccc1-n1cnc2ccccc2c1=O [A.10.1]	< 100 nM

Please give the measured IC50 for this molecule: C=CC(=O)Nc1cccc(-c2cnc(C(N)=O)c3[nH]ccc23)c1C [Example 17]
< 100 nM

Please give the measured IC50 for this molecule: CCNC(=O)/C=C\C(=O)Nc1cccc(-c2ccc(C(N)=O)c3[nH]ccc23)c1C [D.8.15]
< 100 nM

Please give the measured IC50 for this molecule: Cc1c(-c2ccc(C(N)=O)c3[nH]c(C4=CCN(S(C)(=O)=O)CC4)cc23)cccc1N(C(=O)c1ccc(C(F)F)cc1)C1COC1 [A.4.12]
< 100 nM

---

Catalogue of IC50 readings, one per entry.
# systemTested: BTK, recombinant human catalytic domain (aa 393-659) (Homo sapiens (Human), UniProt Q06187)
# testProtocol: In vitro BTK kinase activity measured by time-resolved fluorescence resonance energy transfer (trFRET)
# Assay type: biochemical
# assaySetup: trFRET, 0.001 mM ATP, biotin-TYR1 peptide substrate; read-out: Btk IC50

C=CC(=O)Nc1c[nH]c2c(C(N)=O)ccc(-c3cccc(NC(=O)c4nccs4)c3C)c12	1000 to 10000 nM
C=CC(=O)Nc1cccc(-c2ccc(C(N)=O)c3[nH]c(C4=CCN(S(C)(=O)=O)CC4)cc23)c1	< 100 nM
C=CC(=O)Nc1ccc(C(N)=O)c2[nH]ccc12 [Example 5, 4-Acrylamido-1H-indole-7-carboxamide]	1000 to 10000 nM
CNC(=O)/C=C/C(=O)Nc1cccc(-c2ccc(C(N)=O)c3[nH]ccc23)c1	1000 to 10000 nM
Cc1c(NC(=O)CCN2CCOCC2)cccc1-c1ccc(C(N)=O)c2[nH]ccc12	1000 to 10000 nM
NC(=O)c1ccc(-c2cccc(NC(=O)/C=C/C(=O)NC3CC3)c2)c2cc[nH]c12	1000 to 10000 nM

We next turn to a different molecule, shown below.
Please give the measured IC50 for this molecule: C=CC(=O)Nc1cccc(-c2ccc(C(N)=O)c3[nH]c(-c4ccncc4)cc23)c1C
< 100 nM

---

# systemTested: BTK, recombinant human catalytic domain (aa 393-659) (Homo sapiens (Human), UniProt Q06187)
# testProtocol: In vitro BTK kinase activity measured by time-resolved fluorescence resonance energy transfer (trFRET)
# Assay type: biochemical
# assaySetup: trFRET, 0.001 mM ATP, biotin-TYR1 peptide substrate; read-out: Btk IC50
metric: IC50

Please give the measured IC50 for this molecule: C=C(C)C(=O)Nc1cccc(-c2ccc(C(N)=O)c3[nH]ccc23)c1C
1 to 10 µM

Please give the measured IC50 for this molecule: C=CC(=O)N[C@@H]1CCC[C@H](c2ccc(C(N)=O)c3[nH]ccc23)C1 (relative stereo)
< 0.1 µM

Please give the measured IC50 for this molecule: Cc1c(NC(=O)c2cc3c(s2)CCCC3)cccc1-c1ccc(C(N)=O)c2[nH]c(-c3cccnc3)cc12
< 0.1 µM

Please give the measured IC50 for this molecule: CC(=O)N1CC=C(c2cc3c(-c4cccc(NC(=O)c5ccc(C(F)F)cc5)c4C)ccc(C(N)=O)c3[nH]2)CC1
< 0.1 µM

Please give the measured IC50 for this molecule: Cn1cc(-c2cc3c(-c4cccc(NC(=O)c5nccs5)c4CO)ccc(C(N)=O)c3[nH]2)cn1
< 0.1 µM

Please give the measured IC50 for this molecule: Cc1c(-c2ccc(C(N)=O)c3[nH]c(C4=CCN(C)C4)cc23)cccc1-n1cnc2ccccc2c1=O
< 0.1 µM

Please give the measured IC50 for this molecule: Cc1ccc(-c2cc3c(Nc4ccnn4C)ccc(C(N)=O)c3[nH]2)cc1
0.1 to 1 µM

Please give the measured IC50 for this molecule: NC(=O)c1ccc(I)c2cc(-c3cccnc3)[nH]c12
0.1 to 1 µM

---

# systemTested: BTK, recombinant human catalytic domain (aa 393-659) (Homo sapiens (Human), UniProt Q06187)
# testProtocol: In vitro BTK kinase activity measured by time-resolved fluorescence resonance energy transfer (trFRET)
# Format: biochemical
# assaySetup: trFRET, 0.001 mM ATP, biotin-TYR1 peptide substrate; read-out: Btk IC50
metric: IC50

NC(=O)c1ccc(-c2ccncc2)c2cc(-c3ccc(F)cc3)[nH]c12 [A.9.4]	100 to 1000 nM
C=CC(=O)N1CCC[C@@H](c2ccc(C(N)=O)c3[nH]ccc23)C1 [30 (S)]	< 100 nM
Cc1c(NC(=O)/C=C/CN(C)C)cccc1-c1ccc(C(N)=O)c2[nH]ccc12 [J.1]	100 to 1000 nM
C=CC(=O)Nc1cccc(-c2ccc(C(N)=O)c3[nH]c(-c4cccc(F)c4)cc23)c1C [A.1.26]	< 100 nM
Cc1ccc(-c2cc3c(-c4c(C)noc4C)ccc(C(N)=O)c3[nH]2)cc1 [A.8.2]	100 to 1000 nM

Please give the measured IC50 for this compound: NC(=O)c1ccc(-c2ccccc2NC(=O)Cn2sc3ccccc3c2=O)c2cc[nH]c12 [D.2.1]
1000 to 10000 nM

Please give the measured IC50 for this compound: Cc1c(NC(=O)c2nccs2)cccc1-c1ccc(C(N)=O)c2[nH]c(-c3ccc(=O)n(C)c3)cc12 [A.2.1]
< 100 nM

Please give the measured IC50 for this compound: Cc1c(-c2ccc(C(N)=O)c3[nH]c(-c4cncnc4)cc23)cccc1-n1cnc2ccc(F)cc2c1=O [A.13.2]
100 to 1000 nM

---

# systemTested: BTK, recombinant human catalytic domain (aa 393-659) (Homo sapiens (Human))
# testProtocol: In vitro BTK kinase activity measured by time-resolved fluorescence resonance energy transfer (trFRET)
# Type: biochemical
# assaySetup: read-out: Btk IC50
Catalogue of IC50 readings, one per entry.

Please give the measured IC50 for this molecule: Cn1cc(-c2cc3c(N4CCC[C@@H](NC(=O)c5ccc(OC(F)(F)F)cc5)C4)ccc(C(N)=O)c3[nH]2)cn1 [O.1.24*]
100 to 1000 nM

Please give the measured IC50 for this molecule: C=CC(=O)N1CCC[C@@H](c2cnc(C(N)=O)c3sc(-c4cnn(C)c4)nc23)C1 [E.9.37]
< 100 nM

Please give the measured IC50 for this molecule: C=CC(=O)Nc1ccc(F)c(-c2ccc(C(N)=O)c3[nH]ccc23)c1F [E.1.20]
< 100 nM

Please give the measured IC50 for this molecule: Cc1c(NC(=O)/C=C/C(N)=O)cccc1-c1ccc(C(N)=O)c2[nH]c(C3=CCN(S(C)(=O)=O)CC3)cc12 [D.7.25]
< 100 nM

Please give the measured IC50 for this molecule: C=CC(=O)Nc1ccc(F)c(-c2ccc(C(N)=O)c3[nH]ccc23)c1 [E.1.32]
100 to 1000 nM

Please give the measured IC50 for this molecule: C=CC(=O)Nc1cc(-c2ccc(C(N)=O)c3[nH]ccc23)ccc1C [E.1.25]
< 100 nM

Please give the measured IC50 for this molecule: CCOC(=O)/C=C/C(=O)Nc1cccc(-c2ccc(C(N)=O)c3[nH]c(C4=CCN(S(C)(=O)=O)CC4)cc23)c1C [D.7.20]
< 100 nM

Please give the measured IC50 for this molecule: NC(=O)c1ccc(N2CCC[C@@H](n3cnc4ccccc4c3=O)C2)c2cc(-c3cccnc3)[nH]c12 [O.1.27*]
100 to 1000 nM

Please give the measured IC50 for this molecule: Cc1c(NCc2nccs2)cccc1-c1ccc(C(N)=O)c2[nH]c(C3=CCN(S(C)(=O)=O)CC3)cc12 [H.2.1]
< 100 nM

Please give the measured IC50 for this molecule: COc1ccc(C(=O)N[C@@H]2CCCN(c3ccc(C(N)=O)c4[nH]c(-c5cnn(C)c5)cc34)C2)cc1 [O.1.20*]
100 to 1000 nM

Please give the measured IC50 for this molecule: C=CC(=O)Nc1cccc(-c2ncc(C(N)=O)c3[nH]ccc23)c1 [E.1.10]
< 100 nM

Please give the measured IC50 for this molecule: C=CC(=O)Nc1cc(-c2ccc(C(N)=O)c3[nH]ccc23)ccc1OC [E.1.8]
100 to 1000 nM

Please give the measured IC50 for this molecule: COC(=O)/C=C/C(=O)Nc1cccc(-c2ccc(C(N)=O)c3[nH]c(C4=CCN(S(C)(=O)=O)CC4)cc23)c1C [D.7.18]
< 100 nM

Please give the measured IC50 for this molecule: Cc1c(NC(=O)c2nccs2)cccc1-c1ccc(C(N)=O)c2[nH]c(-c3ccccc3CNC(=O)CCl)cc12 [E.4.1]
100 to 1000 nM

Please give the measured IC50 for this molecule: C=CC(=O)N1CC[C@@H](c2ccc(C(N)=O)c3[nH]c(-c4cc5n(n4)CCOC5)cc23)C1 [E.9.27]
< 100 nM

Please give the measured IC50 for this molecule: Cn1cc(-c2cc3c(N4CCC[C@@H](NC(=O)c5ccc(C(C)(C)C(N)=O)cc5)C4)ccc(C(N)=O)c3[nH]2)cn1 [O.1.23*]
100 to 1000 nM

Please give the measured IC50 for this molecule: Cc1c(NC(=O)C2CCCN(C)C2)cccc1-c1ccc(C(N)=O)c2[nH]c(C3=CCN(S(C)(=O)=O)CC3)cc12 (stereo not shown) [D.7.37]
100 to 1000 nM

Please give the measured IC50 for this molecule: Cc1c(NC(=O)CCN2CCN(C)CC2)cccc1-c1ccc(C(N)=O)c2[nH]c(C3=CCN(S(C)(=O)=O)CC3)cc12 [D.7.27]
< 100 nM

Please give the measured IC50 for this molecule: C=CC(=O)N1CCOC[C@@H](c2ncc(C(N)=O)c3[nH]ccc23)C1 [E.9.30]
< 100 nM

Please give the measured IC50 for this molecule: C=CC(=O)N(C)c1cccc(-c2ccc(C(N)=O)c3[nH]ccc23)c1 [E.1.5]
< 100 nM

Please give the measured IC50 for this molecule: C=CC(=O)N1CCOC[C@@H](c2cnc(C(N)=O)c3[nH]ccc23)C1 [Example 3.1]
100 to 1000 nM
